Value Kind: melting point

N#CC1=CCCc2ccc(Br)cc21 : 113 to 115 °C
CCC(O)CCCOc1ccccc1Oc1ccccc1OCCCC(O)CC (stereo not given) : 119 °C
Cc1nc(-c2ccc(C#N)cc2)oc1C(=O)NCCCCN1CCC(c2ccc3c(c2OCCO)CCCC3)CC1 : 109 to 111 °C

[ask] So what does the record say about melting point for `CC(C)(CO)CNS(=O)(=O)c1ccc(NC=C2C(=O)Nc3ccc4ncsc4c32)cc1` ?
[reply] > 250 °C

[ask] So what does the record say about melting point for `CSc1ncc(F)c(N)n1` ?
[reply] 114 to 115 °C

[ask] So what does the record say about melting point for `CN(C)C(=O)C1(n2ccc(-c3ccccc3)n2)CC1` ?
[reply] 96 to 99 °C
